Target Of Assay: human PDHK2 (hPDHK2) (Homo sapiens (Human))
Assay Name: Inhibitory action of PDHK activity in vitro (kinase reaction, residual PDH activity measured)
Type: biochemical
Measurement Setup: read-out: PDHK inhibitory activity IC50
For each record, write down the corresponding pIC50.
Give bare numbers, as −log10 of the molar value.

- Compound: "O=C(c1ccc2c(c1)C(O)(C(F)(F)F)c1ccccc1-2)C1CCC1 (centres unmarked)"
  Recorded Measurement: 6.00
- Compound: "CCOc1ccc2c(c1)C(O)(C(F)(F)F)c1ccccc1-2 (centres unmarked)"
  Recorded Measurement: 5.67

Below are some compounds; for each one, tell me its pIC50.
1. OC1(C(F)(F)F)c2ccccc2-c2ccc(-c3ccncc3)cc21 (centres unmarked)
2. CN(C)C(=O)CCCOc1ccc2c(c1)C(O)(C(F)(F)F)c1ccccc1-2 (centres unmarked)
3. CC(=O)c1ccc2c(c1)C(O)(C(F)(F)F)c1ccccc1-2 (centres unmarked)

Result ::
1. 6.82
2. 6.65
3. 5.76

---

Target Of Assay: human PDHK2 (hPDHK2) (Homo sapiens (Human))
Assay Name: Inhibitory action of PDHK activity in vitro (kinase reaction, residual PDH activity measured)
Assay type: biochemical
Measurement Setup: read-out: PDHK inhibitory activity IC50
Endpoint: pIC50
Give bare numbers, as −log10 of the molar value.

Solved entries:
- Compound: "O=C(NCCCO)c1ccc2c(c1)C(O)(C(F)(F)F)c1ccccc1-2 (stereo not drawn)"
  pIC50: 5.15
- Compound: "CCOC(=O)CCCOc1ccc2c(c1)C(O)(C(F)(F)F)c1ccccc1-2 (stereo not drawn)"
  pIC50: 6.25
- Compound: "NC(=O)COc1cc(-c2cncnc2)c2c(c1)C(O)(C(F)(F)F)c1ccccc1-2 (stereo not drawn)"
  pIC50: 7.33

Below are some compounds; for each one, tell me its pIC50.
1. Cn1cc(-c2cc(C(=O)N3CCCC3)cc3c2-c2ccccc2C3(O)C(F)(F)F)cn1 (stereo not drawn)
2. OC1(C(F)(F)F)c2ccccc2-c2c(-c3cccnc3)cc(Cl)cc21 (stereo not drawn)
3. OC1(C(F)(F)F)c2ccccc2-c2c(-c3cn[nH]c3)cccc21 (stereo not drawn)
4. Cn1cc(-c2cc(OCCO)cc3c2-c2ccccc2C3(O)C(F)(F)F)cn1 (stereo not drawn)

Result ::
1: 7.28; 2: 7.12; 3: 6.90; 4: 7.35

---

For each record, write down the corresponding pIC50.
Target Of Assay: UniProt:Q15119
Assay Name: Inhibitory action of PDHK activity in vitro (kinase reaction, residual PDH activity measured)
Format: biochemical
Measurement Setup: read-out: PDHK inhibitory activity IC50
Give bare numbers, as −log10 of the molar value.

- Compound: "O=C(O)CCOc1ccc2c(c1)C(O)(C(F)(F)F)c1ccccc1-2 (stereo not drawn)"
  pIC50: 5.23
- Compound: "O=C(O)c1ccc(-c2ccc3c(c2)C(O)(C(F)(F)F)c2ccccc2-3)cc1Cl (stereo not drawn)"
  pIC50: 6.60

Below are some compounds; for each one, tell me its pIC50.
1. OC1(C(F)(F)F)c2ccccc2-c2c(-c3cncnc3)cccc21 (stereo not drawn)
2. CC(=O)c1cc(-c2cnn(C)c2)cc2c1-c1ccccc1C2(O)C(F)(F)F (stereo not drawn)
3. CCCCCOc1ccc2c(c1)C(O)(C(F)(F)F)c1ccccc1-2 (stereo not drawn)
4. OCCn1cc(-c2cc(CO)cc3c2-c2ccccc2C3(O)C(F)(F)F)cn1 (stereo not drawn)
5. CN(C)c1ccc2c(c1)C(O)(C(F)(F)F)c1ccccc1-2 (stereo not drawn)

Result ::
[6.94, 7.39, 6.06, 7.19, 5.08]

Below are some compounds; for each one, tell me its pIC50.
1. CC(C)NC(=O)Cn1cc(-c2cccc3c2-c2ccccc2C3(O)C(F)(F)F)cn1 (stereo not drawn)
2. O=C(c1ccc2c(c1)C(O)(C(F)(F)F)c1ccccc1-2)N1CCC1 (stereo not drawn)

Result ::
1. 7.24
2. 6.71

---

Target Of Assay: human PDHK2 (hPDHK2) (Homo sapiens (Human), UniProt Q15119)
Assay Name: Inhibitory action of PDHK activity in vitro (kinase reaction, residual PDH activity measured)
Assay type: biochemical
Measurement Setup: PDHK inhibitory activity, class symbol of IC50
Endpoint: IC50

Solved entries:
- Compound: "OC1(C(F)(F)F)c2ccccc2-c2c(F)cccc21 (stereo not drawn)"
  IC50: "> 1000 nM"
- Compound: "Cc1ccncc1-c1cccc2c1-c1ccccc1C2(O)C(F)(F)F (stereo not drawn)"
  IC50: "> 1000 nM"
- Compound: "C/C=C/c1ccc2c(c1)C(O)(C(F)(F)F)c1ccccc1-2 (stereo not drawn)"
  IC50: "> 1000 nM"
- Compound: "CC(O)c1cc(-c2cnn(CCO)c2)cc2c1-c1ccccc1C2(O)C(F)(F)F (stereo not drawn)"
  IC50: "100 to 1000 nM"
- Compound: "CN(C)C(=O)C1CN(C(=O)c2ccc3c(c2)C(O)(C(F)(F)F)c2ccccc2-3)C1 (stereo not drawn)"
  IC50: "100 to 1000 nM"

Below are some compounds; for each one, tell me its IC50.
1. CC(=O)c1ccc2c(c1)C(O)(C(F)(F)F)c1ccccc1-2 (stereo not drawn)
2. COc1cccc2c1-c1ccccc1C2(O)C(F)(F)F (stereo not drawn)
3. CC(=O)c1cc(-c2cnn(CCO)c2)cc2c1-c1ccccc1C2(O)C(F)(F)F (stereo not drawn)

Result ::
1. > 1000 nM
2. > 1000 nM
3. < 100 nM

Query :: Bench note: what IC50 did CN1CCN(c2ccc3c(c2)C(O)(C(F)(F)F)c2ccccc2-3)CC1 (stereo not drawn) show?
Result :: > 1000 nM

---

Target Of Assay: human PDHK2 (hPDHK2) (Homo sapiens (Human), UniProt Q15119)
Assay Name: Inhibitory action of PDHK activity in vitro (kinase reaction, residual PDH activity measured)
Format: biochemical
Measurement Setup: PDHK inhibitory activity, class symbol of IC50
Endpoint: IC50

Solved entries:
- Compound: "O=C(c1ccc2c(c1)C(O)(C(F)(F)F)c1ccccc1-2)N1CC(O)C1 (centres unmarked)"
  IC50: "0.1 to 1 µM"
- Compound: "OCc1ccc(-c2ccc3c(c2)C(O)(C(F)(F)F)c2ccccc2-3)cc1 (centres unmarked)"
  IC50: "0.1 to 1 µM"
- Compound: "O=C(c1ccccc1)c1ccc2c(c1)C(O)(C(F)(F)F)c1ccccc1-2 (centres unmarked)"
  IC50: "> 1 µM"

Below are some compounds; for each one, tell me its IC50.
1. OCc1cccc2c1-c1ccccc1C2(O)C(F)(F)F (centres unmarked)
2. OC1(C(F)(F)F)c2ccccc2-c2ccc(-c3ccccc3Cl)cc21 (centres unmarked)
3. Oc1ccc2c(c1)-c1ccccc1C2(O)C(F)(F)F (centres unmarked)
4. CN(C)CCOc1ccc2c(c1)C(O)(C(F)(F)F)c1ccccc1-2 (centres unmarked)
5. OCc1ccc2c(c1)C(O)(C(F)(F)F)c1ccccc1-2 (centres unmarked)
6. CN(CCOc1cc(Cl)c2c(c1)C(O)(C(F)(F)F)c1ccccc1-2)S(C)(=O)=O (centres unmarked)
7. Cn1cc(-c2cc(C(=O)N3CC(OCCO)C3)cc3c2-c2ccccc2C3(O)C(F)(F)F)cn1 (centres unmarked)

Result ::
> 1 µM
> 1 µM
> 1 µM
> 1 µM
> 1 µM
< 0.1 µM
< 0.1 µM

Below are some compounds; for each one, tell me its IC50.
1. OC1(C(F)(F)F)c2ccccc2-c2cc(F)ccc21 (centres unmarked)
2. O=C(c1ccc2c(c1)C(O)(C(F)(F)F)c1ccccc1-2)N1CCC(O)C1 (centres unmarked)
3. CC(=O)N(C)CCCOc1ccc2c(c1)C(O)(C(F)(F)F)c1ccccc1-2 (centres unmarked)

Result ::
> 1 µM
> 1 µM
0.1 to 1 µM

---

Target Of Assay: human PDHK2 (hPDHK2) (Homo sapiens (Human), UniProt Q15119)
Assay Name: Inhibitory action of PDHK activity in vitro (kinase reaction, residual PDH activity measured)
Type: biochemical
Measurement Setup: PDHK inhibitory activity, class symbol of IC50
pIC50: −log10 of the molar value.
For each record, write down the corresponding pIC50.

Solved entries:
- Molecule: "C=C(C)c1cccc2c1-c1ccccc1C2(O)C(F)(F)F (centres unmarked) [compound 138]"
  pIC50: "< 6.00"
- Molecule: "OC1(C(F)(F)F)c2ccccc2-c2ccc(OCC3CC3)cc21 (centres unmarked) [compound 256]"
  pIC50: "< 6.00"
- Molecule: "NC(=O)c1cccc(-c2ccc3c(c2)C(O)(C(F)(F)F)c2ccccc2-3)c1 (centres unmarked) [compound 156]"
  pIC50: "6.00 to 7.00"

Below are some molecules; for each one, tell me its pIC50.
1. O=C(c1cccc2c1-c1ccccc1C2(O)C(F)(F)F)N1CC1 (centres unmarked) [compound 111]
2. CC1CN(C(=O)c2ccc3c(c2)C(O)(C(F)(F)F)c2ccccc2-3)C1 (centres unmarked) [compound 88]
3. COc1cc(-c2cnn(C)c2)c2c(c1)C(O)(C(F)(F)F)c1ccccc1-2 (centres unmarked) [compound 463]
4. Cc1cccc2c1-c1ncccc1C2(O)C(F)(F)F (centres unmarked) [compound 15]
5. CN(CCOc1ccc2c(c1)C(O)(C(F)(F)F)c1ccccc1-2)C(=O)CO (centres unmarked) [compound 348]

Result ::
["< 6.00", "< 6.00", "> 7.00", "< 6.00", "6.00 to 7.00"]

Below are some molecules; for each one, tell me its pIC50.
1. NC(=O)c1cccc2c1-c1ccccc1C2(O)C(F)(F)F (centres unmarked) [compound 33]
2. CC(=O)NCc1ccc2c(c1)C(O)(C(F)(F)F)c1ccccc1-2 (centres unmarked) [compound 415]

Result ::
1: < 6.00; 2: < 6.00
